endpoint name: melting point

Recorded melting point, per entry:
[[record]]
given_smiles = "COc1ccc(-c2csc(Nc3ccncc3)n2)cc1OC"
endpoint_name = "melting point"
result = "205 to 207 °C"

[[record]]
given_smiles = "c1ccc(-c2ccc(-c3csc(Nc4cc5ccccc5cn4)n3)s2)nc1"
endpoint_name = "melting point"
result = "246 to 248 °C"

[[record]]
given_smiles = "Cc1ccc(Nc2nc(-c3cccc(C#N)c3)cs2)nc1"
endpoint_name = "melting point"
result = "268 to 272 °C"

[[record]]
given_smiles = "COc1ccc(-c2csc(Nc3cccc(C)n3)n2)cc1OC"
endpoint_name = "melting point"
result = "264 to 266 °C"

[[record]]
given_smiles = "FC(F)(F)c1csc(Nc2cc3ccccc3cn2)n1"
endpoint_name = "melting point"
result = "200 to 203 °C"

[[record]]
given_smiles = "Cc1ccnc(Nc2nc(-c3ccc(OC(F)(F)F)cc3)cs2)c1"
endpoint_name = "melting point"
result = "275 to 282 °C"

[[record]]
given_smiles = "Cc1cccc(Nc2nc(-c3cc(-c4ccccc4)no3)cs2)n1"
endpoint_name = "melting point"
result = "291 to 293 °C"

[[record]]
given_smiles = "COc1ccc(-c2csc(Nc3cc(C)ccn3)n2)cc1OC"
endpoint_name = "melting point"
result = "211 to 213 °C"


Exercise: What value of melting point has been reported for the following compound? `COc1ccc(Nc2nc(-c3ccncc3)cs2)nc1`
Solution: 213 to 214 °C

Exercise: What value of melting point has been reported for the following compound? `COc1ccc(-c2csc(NC(=O)c3cc4ccccc4cn3)n2)cc1OC`
Solution: 228 to 230 °C

Exercise: What value of melting point has been reported for the following compound? `COc1ccc(-c2csc(Nc3ccc4ccccc4c3)n2)cc1OC`
Solution: 221 to 224 °C

----------
Experiment: Single-dose pharmacokinetic studies in female FVB mice (PO, IV, IP)
Format: in vivo, mouse
Conditions: female, mouse, brain and plasma, 10 mg/kg; FVB mice, single oral dose; read-out: brain:plasma AUClast ratio
Protocol: For in-vivo pharmacokinetic studies, compounds were dissolved in a formulation containing 20% propylene glycol, 5% ethanol, 5% labrosol, and 70% polyethylene glycol 400 (PEG400) and administered by oral gavage to female FVB mice weighing ˜25 g. […] Plasma and brain homogenate samples were extracted using a protein-precipitation method and analyzed by specific LC/MS/MS methods developed for each compound dosed in vivo. […]
// reported Kp per item
The answer should be a number; do not append a unit.

Recorded Kp, per entry:
[[record]]
compound = "C(=N\\Nc1ccc(-c2cnco2)cc1)/c1ccncc1 [IND54304, reference compound]"
endpoint_name = "Kp"
numeric_value = 0.5

[[record]]
compound = "Cc1ccnc(Nc2nc(-c3ccc(-c4ccccn4)s3)cs2)c1"
endpoint_name = "Kp"
numeric_value = 5.5


Proceed to the following item.
Exercise: What value of Kp has been reported for the following compound? `Cc1cccc(Nc2nc(-c3ccc(-c4ccccc4)cc3)cs2)n1`
Solution: 2.6

----------
tested on: PrP^Sc in nondividing ScN2a-cl3 cells; type: cell-based, mouse; conditions: SPC assay, nondividing cells
Note to self: class = bucket of Inhibition of Baseline PrP^5c (%) Non-dividing Cells ELISA, per lower level = under 40%, middle level = from 40% up to 50%, upper level = 50% and over

[[record]]
molecule = "CC(=O)c1ccc(N2CCN(Cc3ccc(F)cc3F)CC2)cc1"
cat = "lower level"

[[record]]
molecule = "Cc1ccc2[nH]c3c(c2c1)CCCC3NCC12CC3CC(CC(C3)C1)C2 (centres unmarked)"
cat = "upper level"

[[record]]
molecule = "O=C(Nc1ccccc1)Nc1ccc(F)c(Cl)c1"
cat = "upper level"

[[record]]
molecule = "O=C(Nc1ccc(F)c(Cl)c1)Nc1ccc(Cl)c(Cl)c1"
cat = "upper level"

[[record]]
molecule = "O=C(Nc1ccc(Cl)cc1)Nc1ccc(C(F)(F)F)cc1Cl"
cat = "upper level"

[[record]]
molecule = "O=C(Nc1ccc(Cl)cc1)Nc1ccc(Cl)c(F)c1"
cat = "upper level"

[[record]]
molecule = "CNCCc1c(-c2ccccc2)n(-c2ccccc2)c2ccccc12"
cat = "middle level"

[[record]]
molecule = "Cc1ccc2[nH]c3c(c2c1)CCCC3NC1CCCCC1 (centres unmarked)"
cat = "middle level"


Exercise: Band for the recorded Inhibition of Baseline PrP^5c (%) Non-dividing Cells ELISA of `COc1cc(CN2CCN(c3cccc(C)c3C)CC2)cc(Br)c1O` ?
Solution: middle level

Exercise: Band for the recorded Inhibition of Baseline PrP^5c (%) Non-dividing Cells ELISA of `COc1ccc2[nH]c3c(OC)ncnc3c2c1` ?
Solution: lower level

Exercise: Band for the recorded Inhibition of Baseline PrP^5c (%) Non-dividing Cells ELISA of CC(=O)c1ccc(N2CCN(CC(C)CCC=C(C)C)CC2)cc1 (centres unmarked) ?
Solution: upper level

Exercise: Band for the recorded Inhibition of Baseline PrP^5c (%) Non-dividing Cells ELISA of `CC(=O)c1ccc(N2CCN(Cc3ccc(Br)s3)CC2)cc1` ?
Solution: lower level

Exercise: Band for the recorded Inhibition of Baseline PrP^5c (%) Non-dividing Cells ELISA of `CC(=O)c1ccc(N2CCN(Cc3c(C)n(C)n(-c4ccccc4)c3=O)CC2)cc1` ?
Solution: lower level

Exercise: Band for the recorded Inhibition of Baseline PrP^5c (%) Non-dividing Cells ELISA of O=C(Nc1ccc(Cl)c(Cl)c1)NC(CC(=O)c1ccc([N+](=O)[O-])cc1)C(Cl)(Cl)Cl (centres unmarked) ?
Solution: upper level

Exercise: Band for the recorded Inhibition of Baseline PrP^5c (%) Non-dividing Cells ELISA of `CC(=O)c1ccc(N2CCN(Cc3cccc(Cl)c3)CC2)cc1` ?
Solution: lower level
